# Assay Explanation: Cytotoxicity against human EC109 cells at 50 ug/ml after 48 hrs by MTT assay
# Format: functional
# Recorded Conditions: ECa-109, 48 h
Classify by inhibition at 50 µg/mL. Ranges: group A: < 40%; group B: ≥ 40% and < 60%; group C: ≥ 60%

INSERT INTO measurements (molecule, group) VALUES
  ('C[C@]12C[C@@H](O)[C@H]3[C@@H]([C@H](O)C=C4C[C@@H](O)CC[C@@]43C)[C@@H]1CC[C@@H]2C(=O)/C=C/c1ccc(O)cc1', 'group B'),
  ('COc1cc(OC)c(/C=C/C(=O)[C@H]2CC[C@H]3[C@H]4[C@H]([C@H](O)C[C@]23C)[C@@]2(C)CC[C@H](O)CC2=C[C@H]4O)c(OC)c1', 'group A'),
  ('COc1ccccc1/C=C/C(=O)[C@H]1CC[C@H]2[C@H]3[C@H]([C@H](O)C[C@]12C)[C@@]1(C)CC[C@H](O)CC1=C[C@H]3O', 'group B'),
  ('CC(=O)[C@H]1CC[C@H]2[C@H]3[C@H]([C@H](O)C[C@]12C)[C@@]1(C)CC[C@H](O)CC1=C[C@H]3O', 'group A'),
  ('COc1ccc(/C=C/C(=O)[C@H]2CC[C@H]3[C@H]4[C@H]([C@H](O)C[C@]23C)[C@@]2(C)CC[C@H](O)CC2=C[C@H]4O)cc1', 'group B'),
  ('C[C@]12C[C@@H](O)[C@H]3[C@@H]([C@H](O)C=C4C[C@@H](O)CC[C@@]43C)[C@@H]1CC[C@@H]2C(=O)/C=C/c1ccc(Cl)cc1', 'group C'),
  ('C[C@]12C[C@@H](O)[C@H]3[C@@H]([C@H](O)C=C4C[C@@H](O)CC[C@@]43C)[C@@H]1CC[C@@H]2C(=O)/C=C/c1cccc([N+](=O)[O-])c1', 'group C'),
  ('CC(=O)[C@H]1CC[C@H]2[C@@H]3CC=C4C[C@@H](O)CC[C@]4(C)[C@H]3CC[C@]12C [PREGNENOLONE]', 'group A'),
  ('C[C@]12C[C@@H](O)[C@H]3[C@@H]([C@H](O)C=C4C[C@@H](O)CC[C@@]43C)[C@@H]1CC[C@@H]2C(=O)/C=C/c1ccc(F)cc1', 'group C');

----------
# maps each entry to its inhibition at 50 µg/mL
# Assay Explanation: Cytotoxicity against human EC109 cells at 50 ug/ml after 48 hrs by MTT assay
# Format: functional
# Recorded Conditions: ECa-109, 48 h
Endpoint: inhibition at 50 µg/mL (%)

INSERT INTO measurements (compound, uom, numeric_result) VALUES
  ('C[C@]12C[C@@H](O)[C@H]3[C@@H]([C@H](O)C=C4C[C@@H](O)CC[C@@]43C)[C@@H]1CC[C@@H]2C(=O)/C=C/c1ccc(N)cc1', '%', 50.2),
  ('C[C@]12C[C@@H](O)[C@H]3[C@@H]([C@H](O)C=C4C[C@@H](O)CC[C@@]43C)[C@@H]1CC[C@@H]2C(=O)/C=C/c1cccc(Cl)c1', '%', 76.4),
  ('C=C1C(=O)[C@]23[C@H](O)[C@H]1CC[C@H]2[C@@]12CO[C@]3(O)[C@@H](O)[C@@H]1C(C)(C)CC[C@@H]2O [ORIDONIN]', '%', 94.7);
